Biological target: T1, Anti-CD28 Fab (SEQ ID NOs: 696, 697)
T1 construct: Biotinylated and captured on neutravidin coated plates in the phage ELISA
T1 sequence (VH, as listed by the source, chain 1 of 2): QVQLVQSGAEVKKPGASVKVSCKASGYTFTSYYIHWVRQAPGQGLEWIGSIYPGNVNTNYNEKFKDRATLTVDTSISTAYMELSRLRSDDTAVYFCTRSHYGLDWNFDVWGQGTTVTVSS
T1 sequence (VL, as listed by the source, chain 2 of 2): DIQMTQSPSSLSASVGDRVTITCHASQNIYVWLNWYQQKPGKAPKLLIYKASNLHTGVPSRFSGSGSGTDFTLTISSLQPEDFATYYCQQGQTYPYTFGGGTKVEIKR
Test: phage binding ELISA on anti-CD28 Fab plate pre-incubated with CD28 antigen as competitor; anti-M13 HRP detection
Below: a set of entries, each annotated with reported Anti-CD28 Fab signal in the presence of CD28 (phage binding ELISA).
Format: numeric value only, no unit, no commentary.

[Q] Provide only the value of recorded Anti-CD28 Fab signal in the presence of CD28 (phage binding ELISA) for YCAGHLEIYMQKCL (peptide, not shown: large carriers, Clonal phage supernatant of the Peptide-87 library) [Phage-661]
[A] 0.08

[Q] Supply recorded Anti-CD28 Fab signal in the presence of CD28 (phage binding ELISA) for YCEGHSAEYMWKCL (peptide, not shown: large carriers, Clonal phage supernatant of the Peptide-87 library) [Phage-663] here.
[A] 0.09
